# Test system: antiserum S 4612 (sheep antiserum against triazine)
# assaySummary: Competitive ELISA, sheep triazine antiserum with heterologous POD conjugate atra(deethyl-4-ED)-SATP-PODp(MH)
# Type: binding
# measurementContext: 50 mU/ml, relative to terbutylazine (quotient of hapten concentrations at half maximum signal)
# Experimental: 10 sheep are immunized with triazine immunogen according to example 1 in Freund's adjuvant. The dose is […] per animal. The immunizations are repeated over six months or longer, each at intervals of 4 weeks. […] For this purpose a series of terbutylazine standards are measured in a competitive ELISA using the heterologous POD conjugate atra(deethyl-4-ED)-SATP-POD(MH) according to example 3. […]
measuredMetric: cross reaction (%)
Could you give me the number in %? Just the number is fine.

In: Give cross reaction (%) for CCNc1nc(Cl)nc(NC(C)C)n1
Out: 73

In: Tell me its cross reaction (%) given CC(C)(C)Nc1nc(N)nc(Cl)n1 as the entry.
Out: 102

In: Look up and state reported cross reaction (%) for CC(C)Nc1nc(N)nc(Cl)n1
Out: 7

In: Return the recorded cross reaction (%) value; entry: CCNc1nc(Cl)nc(NCC)n1
Out: 10

In: Give the measured cross reaction (%) for CCNc1nc(Cl)nc(NC(C)(C)C#N)n1
Out: 102

In: Indicate its recorded cross reaction (%); the compound in question is CCNc1nc(Cl)nc(NC(C)(C)C)n1
Out: 100

In: Give the value of cross reaction (%) reported for the following: CC(C)Nc1nc(Cl)nc(NC(C)C)n1
Out: 26

====

# Tested on: antiserum S 4612 (sheep antiserum against triazine)
# assaySummary: Competitive ELISA, sheep triazine antiserum with homologous POD conjugate atra(terbutyl-6ah)-OSu-POD
# Type: binding
# measurementContext: 30 mU/ml, relative to terbutylazine (quotient of hapten concentrations at half maximum signal)
measuredMetric: cross reaction (%)
Return type: number; implicit unit %.

In: Please indicate cross reaction (%) recorded for CCNc1nc(Cl)nc(NCC)n1
Out: 0.9

In: Consider the compound CC(C)Nc1nc(Cl)nc(NC(C)C)n1 and give its recorded cross reaction (%).
Out: 8

In: Specify reported cross reaction (%) for the compound shown: CCNc1nc(Cl)nc(NC(C)C)n1
Out: 4

In: Please supply the value of reported cross reaction (%) for the item CCNc1nc(Cl)nc(NC(C)(C)C#N)n1
Out: 11

In: Specify cross reaction (%) for CC(C)(C)Nc1nc(N)nc(Cl)n1 and stop.
Out: 9

In: # return recorded cross reaction (%) for entry CCNc1nc(Cl)nc(NC(C)(C)C)n1
Out: 100

The origin of these recorded values is patent US5573922A.
